Biological target: hA2A AR (Homo sapiens, UniProt P29274)
Construct: expressed in transfected cells; host or cells: CHO cells
Sequence (P29274 whole entry): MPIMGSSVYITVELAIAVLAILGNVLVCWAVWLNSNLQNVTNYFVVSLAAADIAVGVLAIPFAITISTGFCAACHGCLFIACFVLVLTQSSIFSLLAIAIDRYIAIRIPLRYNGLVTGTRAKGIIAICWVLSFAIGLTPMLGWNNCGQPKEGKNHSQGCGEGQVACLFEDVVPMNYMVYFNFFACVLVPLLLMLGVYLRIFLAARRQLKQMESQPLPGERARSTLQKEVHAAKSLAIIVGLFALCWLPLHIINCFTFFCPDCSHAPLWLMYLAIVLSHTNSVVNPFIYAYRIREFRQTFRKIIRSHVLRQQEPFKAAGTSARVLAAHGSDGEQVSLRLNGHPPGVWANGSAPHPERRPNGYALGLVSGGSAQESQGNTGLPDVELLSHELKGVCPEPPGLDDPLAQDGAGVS
Experiment: [3H]ZM241385 competition binding to hA2A CHO cell membranes
Details: percentage of inhibition at 1µM; [3H]ZM241385
REPORTED_METRIC: I% hA2A (%)
Use % as the unit, but write only the number.

Past entries and their recorded results:
The reported I% hA2A of the molecule "COc1ccc(CCNc2nc(N)c(C#N)c(-c3ccccc3)c2C#N)cc1" was 1

The reported I% hA2A of the molecule "N#Cc1c(N)nc(SCc2ncc[nH]2)c(C#N)c1-c1ccc(C(F)(F)F)cc1" was 32

---
The reported I% hA2A of the molecule "C=CCOc1ccc(-c2c(C#N)c(N)nc(SCc3ncc[nH]3)c2C#N)cc1" was 17
